Origin of the recorded values: patent US20250099448A1

- TARGET_OR_SYSTEM: MAGL protein (Homo sapiens, UniProt Q99685)
Record form. Attribute: log10 IC50. Fill in for each entry.
Use the decimal logarithm of IC50 (nM).

Lab note: need log10 IC50 with MAGL protein (Homo sapiens, UniProt Q99685) for entry N#Cc1ccc(CC2CC3(C2)CN(C(=O)N2CC4(CC(c5nc(C6(O)CC6)n[nH]5)C4)C2)C3)cc1C(F)(F)F , please look it up. 0.16

Lab note: need log10 IC50 with MAGL protein (Homo sapiens, UniProt Q99685) for entry O=C(N1CC2(CC(c3nnc(C4CC4)[nH]3)C2)C1)N1CC2(CN(Cc3nc(-c4ccccc4)no3)C2)C1 , please look it up. 0.45

Lab note: need log10 IC50 with MAGL protein (Homo sapiens, UniProt Q99685) for entry O=C(N1CC2(CC(c3nc(C4CC4)n[nH]3)C2)C1)N1CC2(CN(Cc3ccnn3C(F)(F)F)C2)C1 , please look it up. 1.60

Lab note: need log10 IC50 with MAGL protein (Homo sapiens, UniProt Q99685) for entry Cc1cc(C2CC2)nn1CC1CC2(C1)CN(C(=O)N1CC3(CC(c4nc(C5CC5)n[nH]4)C3)C1)C2 , please look it up. -0.28

Lab note: need log10 IC50 with MAGL protein (Homo sapiens, UniProt Q99685) for entry O=C(N1CC2(CC(Cc3ncc(Cl)cc3F)C2)C1)N1CC2(CC(c3nc(C4CC4)n[nH]3)C2)C1 , please look it up. -0.04

Lab note: need log10 IC50 with MAGL protein (Homo sapiens, UniProt Q99685) for entry N=S(=O)(c1ccc(CC2CC3(C2)CN(C(=O)N2CC4(CC(c5nc(C6CC6)n[nH]5)C4)C2)C3)c(F)c1)C(F)(F)F (centres unmarked) , please look it up. -1.15

Lab note: need log10 IC50 with MAGL protein (Homo sapiens, UniProt Q99685) for entry COC(=O)c1cc(CC2CC3(C2)CN(C(=O)N2CC4(CC(c5nc(C6CC6)n[nH]5)C4)C2)C3)ccc1OC(F)(F)F , please look it up. -1.15

Lab note: need log10 IC50 with MAGL protein (Homo sapiens, UniProt Q99685) for entry O=C(N1CC2(CC(Cn3cc(OC(F)F)ccc3=O)C2)C1)N1CC2(CC(c3nc(C4CC4)n[nH]3)C2)C1 , please look it up. 0.58

Lab note: need log10 IC50 with MAGL protein (Homo sapiens, UniProt Q99685) for entry O=C(N1CC2(CC(c3nc(C4CC4)n[nH]3)C2)C1)N1CC2(CN(Cc3ccnn3CC(F)F)C2)C1 , please look it up. 2.13

Lab note: need log10 IC50 with MAGL protein (Homo sapiens, UniProt Q99685) for entry O=C(N1CC2(CC(c3nc(C4CC4)n[nH]3)C2)C1)N1CC2(CC(n3cnc(C4CC4)n3)C2)C1 , please look it up. 0.94

Lab note: need log10 IC50 with MAGL protein (Homo sapiens, UniProt Q99685) for entry O=C(N1CC2(CC(Cc3ccc(F)cc3F)C2)C1)N1CC2(CC(c3nc(C4COC4)n[nH]3)C2)C1 , please look it up. 0.37

Lab note: need log10 IC50 with MAGL protein (Homo sapiens, UniProt Q99685) for entry COc1cc(COC2CCN(C(=O)N3CC4(CC(c5nc(C6CC6)n[nH]5)C4)C3)CC2)ccc1C(N)=O , please look it up. 3.40

Lab note: need log10 IC50 with MAGL protein (Homo sapiens, UniProt Q99685) for entry O=C(N1CC2(CC(Cc3cncc(S(=O)(=O)C(F)(F)F)c3)C2)C1)N1CC2(CC(c3nc(C4(O)CC4)n[nH]3)C2)C1 , please look it up. 0.10

Lab note: need log10 IC50 with MAGL protein (Homo sapiens, UniProt Q99685) for entry O=C(N1CC2(CC(Cc3ccc(C(F)(F)F)cn3)C2)C1)N1CC2(CC(c3nc(C4(F)CC4)n[nH]3)C2)C1 , please look it up. -0.82

---

- TARGET_OR_SYSTEM: MAGL protein (Homo sapiens)
- Sequence (Q99685 1-303): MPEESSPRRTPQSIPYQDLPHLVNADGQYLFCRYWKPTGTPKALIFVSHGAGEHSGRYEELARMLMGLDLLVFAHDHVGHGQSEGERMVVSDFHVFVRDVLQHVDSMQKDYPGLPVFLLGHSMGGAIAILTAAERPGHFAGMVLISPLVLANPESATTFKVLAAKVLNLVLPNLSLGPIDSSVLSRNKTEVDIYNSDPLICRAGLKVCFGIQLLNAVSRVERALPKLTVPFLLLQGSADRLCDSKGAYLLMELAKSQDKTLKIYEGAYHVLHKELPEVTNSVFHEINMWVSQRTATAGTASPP
Record form. Attribute: pIC50. Fill in for each entry.
# log scale: pIC50 equals minus log10 of the concentration in mol/L

// pIC50 lookup, key: O=C(N1CC2(CC(c3ccc(C(F)(F)F)nc3)C2)C1)N1CC2(CC(c3nc(C4CC4)n[nH]3)C2)C1 8.33

// pIC50 lookup, key: O=C(N1CC2(CC(Cn3cc(C(F)(F)F)ccc3=O)C2)C1)N1CC2(CC(c3nc(C4(O)CC4)n[nH]3)C2)C1 8.21

// pIC50 lookup, key: O=C(N1CC(C23CC(NCC4(C(F)(F)F)CC4)(C2)C3)C1)N1CC2(CC(c3nc(C4(F)CC4)n[nH]3)C2)C1 9.29

// pIC50 lookup, key: O=C(N1CC2(CC(Cc3nc(C(F)(F)F)cs3)C2)C1)N1CC2(CC(c3nc(C4COC4)n[nH]3)C2)C1 7.47

// pIC50 lookup, key: CS(=O)(=O)c1ccc(CC2CC3(C2)CN(C(=O)N2CC4(CC(c5ncn[nH]5)C4)C2)C3)cc1C(F)(F)F 5.56

// pIC50 lookup, key: O=C(N1CC2(CC(Cn3ccc(C(F)(F)F)cc3=O)C2)C1)N1CC2(CC(c3nc(C4CC4)n[nH]3)C2)C1 8.55

// pIC50 lookup, key: O=C(N1CC(c2ccc(N3CC4(CCCC4)C3)nc2)C1)N1CC2(CC(c3nc(C4(O)CC4)n[nH]3)C2)C1 8.80

---

// endpoint IC50 / system MAGL protein (Homo sapiens)
// note: answer is a bare numeric in nM

// IC50 lookup, key: O=C(N1CC2(CC(Cc3ncc(Cl)cc3F)C2)C1)N1CC2(CC(c3nc(C4(O)CC4)n[nH]3)C2)C1 2.94

// IC50 lookup, key: O=C(N1CC2(CC(Cc3ccc(C(F)(F)F)nn3)C2)C1)N1CC2(CC(c3nnc(C4CC4)[nH]3)C2)C1 0.8

// IC50 lookup, key: CS(=O)(=O)c1cccc(COC2CN(C(=O)N3CC4(CC(c5nnc(C6CC6)[nH]5)C4)C3)C2)c1 272

// IC50 lookup, key: Cc1cc(C(F)(F)F)nn1CC1CC2(C1)CN(C(=O)N1CC3(CC(c4nc(C5CC5)n[nH]4)C3)C1)C2 0.24

// IC50 lookup, key: Cc1c(CN2CC3(C2)CN(C(=O)N2CC4(CC(c5nc(C6CC6)n[nH]5)C4)C2)C3)cnn1CC(F)(F)F 43.7

// IC50 lookup, key: O=C(N1CC(N(Cc2ccc(C(F)(F)F)cc2F)C2CC2)C1)N1CC2(CC(c3nnc(C4CC4)[nH]3)C2)C1 69.7

// IC50 lookup, key: COc1cc(C#N)ccc1COC1CCN(C(=O)N2CC3(CC(c4nnc(C5CC5)[nH]4)C3)C2)CC1 59.6

---

- TARGET_OR_SYSTEM: MAGL protein (Homo sapiens)
- Sequence (Q99685 1-303): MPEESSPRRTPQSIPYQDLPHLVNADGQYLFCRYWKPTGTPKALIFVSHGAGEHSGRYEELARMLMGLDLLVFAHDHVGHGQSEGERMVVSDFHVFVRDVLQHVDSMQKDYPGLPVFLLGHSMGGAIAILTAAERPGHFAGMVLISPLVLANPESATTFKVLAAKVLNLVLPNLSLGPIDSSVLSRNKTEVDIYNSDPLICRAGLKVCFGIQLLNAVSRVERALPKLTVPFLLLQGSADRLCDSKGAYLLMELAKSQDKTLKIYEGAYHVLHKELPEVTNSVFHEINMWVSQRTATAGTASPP
QUANTITY: pIC50
# log scale: pIC50 equals minus log10 of the concentration in mol/L

// pIC50 lookup, key: O=C(N1CC2(CC(Cc3ccc4[nH]nc(C(F)(F)F)c4c3)C2)C1)N1CC2(CC(c3nc(C4CC4)n[nH]3)C2)C1 [compound 994] 10.22

// pIC50 lookup, key: O=C(N1CC2(CC(Cc3ncc(F)cc3F)C2)C1)N1CC2(CC(c3nnc(C4CC4)[nH]3)C2)C1 [compound 115] 9.70

// pIC50 lookup, key: O=C(N1CC(CNS(=O)(=O)c2cccc(C(F)(F)F)c2)C1)N1CC2(CC(c3nnc(C4CC4)[nH]3)C2)C1 [compound 208] 7.67

// pIC50 lookup, key: O=C(N1CC(c2ccc(N3CCC(O)(C(F)(F)F)C3)nc2)C1)N1CC2(CC(c3nnc(C4CC4)[nH]3)C2)C1 (single isomer, unassigned) [compound 271] 8.56

// pIC50 lookup, key: O=C(N1CC2(CC(c3ncn[nH]3)C2)C1)N1CC2(CC(c3ccc(C(F)(F)F)cc3F)C2)C1 [compound 982] 5.30

// pIC50 lookup, key: O=C(N1CC(OCc2ccc(S(=O)(=O)C(F)(F)F)cc2F)C1)N1CC2(CC(c3nc(C4(F)CC4)n[nH]3)C2)C1 [compound 470] 8.29

// pIC50 lookup, key: COC(=O)C(C)(C)c1cccc(OC2CN(C(=O)N3CC4(CC(c5nnc(C6CC6)[nH]5)C4)C3)C2)c1 [compound 318] 8.14

// pIC50 lookup, key: CC(C)(C)c1noc(CN2CC3(C2)CN(C(=O)N2CC4(CC(c5nnc(C6CC6)[nH]5)C4)C2)C3)n1 [compound 886] 8.20

// pIC50 lookup, key: O=C(N1CC(C23CC(Cn4ccc(C(F)(F)F)cc4=O)(C2)C3)C1)N1CC2(CC(c3nc(C4CC4)n[nH]3)C2)C1 [compound 947] 8.04

// pIC50 lookup, key: O=C(N1CC(c2cnc(N3CC[C@@H](C(F)(F)F)C3)nc2)C1)N1CC2(CC(c3nc(C4CC4)n[nH]3)C2)C1 [compound 666] 8.66

// pIC50 lookup, key: O=C(N1CC2(CC(c3nc(C4CC4)n[nH]3)C2)C1)N1CC2(CN(Cc3cc(C(F)(F)F)[nH]n3)C2)C1 [compound 625] 8.06

// pIC50 lookup, key: O=C(N1CC(C23CC(C(F)(F)c4ccc(C(F)(F)F)cc4)(C2)C3)C1)N1CC2(CC(c3nc(C4(O)CC4)n[nH]3)C2)C1 [compound 974] 8.21

// pIC50 lookup, key: O=C(N1CC2(CC(c3nc(C4CC4)n[nH]3)C2)C1)N1CC2(CN(Cc3nnnn3CC(F)(F)F)C2)C1 [compound 521] 7.10
